Tested on: KM-20L2
Assay: NCI tumour cell line growth inhibition, 48 h
The source made the active and inactive calls. Rule as the data show it: active = GI50 up to about 1.1 µM and inactive = higher.
We begin with a simple list: items and their reported GI50.

>  <molecule>
COCN1C(=O)C2CC(/C=C/C(N)=O)=CN2C(=O)c2ccccc21 (stereo unspecified)

>  <GI50>
> 100 µM (inactive)

$$$$
>  <molecule>
Cc1[nH]c(=O)[nH]c(=O)c1N(CCF)CCCl [FLUORODOPAN]

>  <GI50>
359 µM (inactive)

$$$$
>  <molecule>
CCC1(OC(C)=O)C(=O)OCc2c1cc1n(c2=O)Cc2cc3ccccc3nc2-1 (stereo unspecified)

>  <GI50>
7.01 µM (inactive)

$$$$
>  <molecule>
NCCCNCCS [WR-1065]

>  <GI50>
> 100 µM (inactive)

$$$$
>  <molecule>
NC(=O)c1nnn(Cc2cc(Cl)c(C(=O)c3ccc(Cl)cc3)c(Cl)c2)c1N [CARBOXYAMIDOTRIAZOLE]

>  <GI50>
> 9.1 µM (inactive)

$$$$
>  <molecule>
COC(=O)CC[C@@H](NC(=O)C(C)NC(=O)COC1C(O)C(COC(=O)CCCCCCCCCCNC(=O)c2ccc([N+](=O)[O-])c3[nH]c4cc(Br)ccc4c(=O)c23)OC(OCc2ccccc2)C1NC(C)=O)C(N)=O (stereo partly specified)

>  <GI50>
> 100 µM (inactive)

$$$$

* * *

We begin with a simple list: items and their reported GI50.
System: SR
Experiment: NCI tumour cell line growth inhibition, 48 h
Active and inactive are the calls of the source. Rule as the data show it: active = GI50 up to about 1.1 µM and inactive = higher.

>  <molecule>
C=C1C(=O)C23CC1CCC2C12CO[C@@]3(O)[C@@H](O)C1C(C)(C)C=CC2=O (some centres undefined)

>  <GI50>
0.186 µM (active)

$$$$
>  <molecule>
CC1=NN(c2nc(N)nc(CF)n2)C(C)(C)C1

>  <GI50>
> 100 µM (inactive)

$$$$
>  <molecule>
CCCCCCc1cc2c(C)c(C)c(=O)oc2cc1OCCCOc1cc2oc(=O)c(C)c(C)c2cc1CCCCCC

>  <GI50>
> 100 µM (inactive)

$$$$
>  <molecule>
CO[C@]12C[C@H](CNC(=O)c3ccc[nH]3)O[C@H]1NC(=O)N2

>  <GI50>
9.31 µM (inactive)

$$$$
>  <molecule>
CCC1(OC(C)=O)C(=O)OCc2c1cc1n(c2=O)Cc2cc3ccccc3nc2-1 (centres undefined)

>  <GI50>
0.276 µM (active)

$$$$
>  <molecule>
Cc1c(-c2ccccc2)c(C#N)c2nnn(C3CCCCC3)c(=O)n12

>  <GI50>
24.8 µM (inactive)

$$$$
>  <molecule>
NC(=O)C(c1ccccc1)N1OC2C(=O)N(Cc3ccccc3)C(=O)C2C1c1cccc(Oc2ccc(Cl)cc2)c1 (centres undefined)

>  <GI50>
22.7 µM (inactive)

$$$$
>  <molecule>
N#C/C(=C\NC(=S)c1ccncc1)c1nc2ccccc2s1

>  <GI50>
74.6 µM (inactive)

$$$$
>  <molecule>
c1ccc(CSc2nc(N3CCCCC3)c3cn[nH]c3n2)cc1

>  <GI50>
25.3 µM (inactive)

$$$$
>  <molecule>
CC1(C)CCC(=O)c2c(O)ccc(O)c21

>  <GI50>
> 10 µM (inactive)

$$$$
>  <molecule>
O=[N+]([O-])c1ccc(S(=O)(=O)Cc2ccccc2)c([N+](=O)[O-])c1

>  <GI50>
0.247 µM (active)

$$$$
>  <molecule>
O=C(O)/C=C\C(=O)Nc1ccc(S(=O)(=O)c2ccc(NC(=O)/C=C\C(=O)O)cc2)cc1

>  <GI50>
> 100 µM (inactive)

$$$$
>  <molecule>
Cc1ccc2cccc(-c3cccc4ccccc34)c2n1

>  <GI50>
12.6 µM (inactive)

$$$$
>  <molecule>
CCC(=O)Nc1cccc(NC(=O)c2c(Cl)c(Cl)c(Cl)c(Cl)c2-c2nc3ccccc3[nH]2)c1

>  <GI50>
17.6 µM (inactive)

$$$$
>  <molecule>
C=C1C(=O)OC2C=C(CCC(C)=O)C(C)C(OC(C)=O)CC12 (centres undefined)

>  <GI50>
11.8 µM (inactive)

$$$$
>  <molecule>
NC(=O)c1nnn(Cc2cc(Cl)c(C(=O)c3ccc(Cl)cc3)c(Cl)c2)c1N [CARBOXYAMIDOTRIAZOLE]

>  <GI50>
6.75 µM (inactive)

$$$$
>  <molecule>
COc1ccc(OC)c(/C=C/c2cnnc3ccccc23)c1

>  <GI50>
1.51 µM (inactive)

$$$$
>  <molecule>
N#CC(NNC(=O)c1ccccc1O)c1cccc(O)c1 (centres undefined)

>  <GI50>
> 100 µM (inactive)

$$$$
>  <molecule>
CCC(C)N1CN(c2ccccc2)C2(CCN(CCCSc3ccc(F)cc3)CC2)C1=O (centres undefined)

>  <GI50>
3.32 µM (inactive)

$$$$
